target: JAK2 (Homo sapiens); experiment: Cellomics pSTAT5 assay, EPO-stimulated TF-1 cells; assay type: cell-based
Sequence (O60674 whole entry): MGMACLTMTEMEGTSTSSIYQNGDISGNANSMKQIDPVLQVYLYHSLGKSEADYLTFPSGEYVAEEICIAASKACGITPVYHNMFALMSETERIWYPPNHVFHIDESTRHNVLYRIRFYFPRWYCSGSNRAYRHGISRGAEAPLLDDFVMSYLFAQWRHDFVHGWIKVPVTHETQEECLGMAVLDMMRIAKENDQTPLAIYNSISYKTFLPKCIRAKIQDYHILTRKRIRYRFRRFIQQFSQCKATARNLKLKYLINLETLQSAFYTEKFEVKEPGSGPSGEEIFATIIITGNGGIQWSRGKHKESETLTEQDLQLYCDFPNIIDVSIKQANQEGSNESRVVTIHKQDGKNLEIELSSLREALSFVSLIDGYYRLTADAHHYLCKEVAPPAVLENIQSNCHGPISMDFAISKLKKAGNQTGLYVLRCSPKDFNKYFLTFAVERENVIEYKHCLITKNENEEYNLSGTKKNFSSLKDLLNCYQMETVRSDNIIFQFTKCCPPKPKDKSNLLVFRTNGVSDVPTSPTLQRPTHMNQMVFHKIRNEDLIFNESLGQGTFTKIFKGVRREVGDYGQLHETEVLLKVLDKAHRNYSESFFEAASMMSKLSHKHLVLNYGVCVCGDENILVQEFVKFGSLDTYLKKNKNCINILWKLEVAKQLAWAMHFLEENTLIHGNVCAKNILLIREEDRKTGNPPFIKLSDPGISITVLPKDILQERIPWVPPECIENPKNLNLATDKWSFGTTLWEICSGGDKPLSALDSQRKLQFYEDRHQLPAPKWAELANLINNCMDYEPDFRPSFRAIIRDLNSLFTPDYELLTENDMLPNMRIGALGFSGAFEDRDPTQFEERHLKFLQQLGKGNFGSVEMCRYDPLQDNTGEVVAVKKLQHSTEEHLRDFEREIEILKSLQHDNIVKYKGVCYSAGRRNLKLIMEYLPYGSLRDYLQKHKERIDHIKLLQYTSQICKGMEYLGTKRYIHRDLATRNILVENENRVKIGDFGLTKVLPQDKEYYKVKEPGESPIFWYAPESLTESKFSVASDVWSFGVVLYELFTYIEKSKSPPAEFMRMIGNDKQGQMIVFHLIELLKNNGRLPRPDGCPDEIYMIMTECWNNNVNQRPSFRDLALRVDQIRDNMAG
pIC50: −log10 of the molar value.
metric-name: pIC50

- Cc1cc(Nc2cc(CN3CCOCC3)c3nc(C)c(Cc4ccc(Cl)cc4F)n3n2)n[nH]1: 7.35

* * *

In this section, each of the compounds is paired with its reported pIC50.
target: TEL-JAK2 (Homo sapiens, UniProt O60674+P41212); experiment: AlphaScreen SureFire pSTAT5 assay, Ba/F3 TEL-JAK2; assay type: cell-based
Sequence (O60674 840-1132 limits assumed, one chain of several): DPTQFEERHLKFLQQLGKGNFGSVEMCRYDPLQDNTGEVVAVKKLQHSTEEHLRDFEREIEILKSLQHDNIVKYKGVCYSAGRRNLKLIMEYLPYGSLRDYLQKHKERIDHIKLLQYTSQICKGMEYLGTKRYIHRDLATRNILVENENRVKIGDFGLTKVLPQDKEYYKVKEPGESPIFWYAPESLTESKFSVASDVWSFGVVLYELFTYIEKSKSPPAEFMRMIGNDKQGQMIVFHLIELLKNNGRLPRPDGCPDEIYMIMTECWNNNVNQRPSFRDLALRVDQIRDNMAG
pIC50: −log10 of the molar value.
metric-name: pIC50

* Cc1cc(Nc2cc(CN3CCOCC3)c3nc(C)c(Cc4ccc(Cl)cc4F)n3n2)n[nH]1 | 6.72
* Cc1cc(Nc2nc(N[C@@H](C)c3ncc(F)cn3)ncc2Cl)n[nH]1 [AZD1480, reference compound] | 6.86

// provenance: paper PMC3641321
